Every entry's value here was drawn from the supplement of paper PMC8728848.

I'd be grateful if you could share measured glycan array binding signal (z-score) for these entries.
molecular target: Gal(b1-3)[Neu5Ac(a2-6)]GalNAc; test: glycan array binding signal (z-score within array); higher = stronger binding; conditions: glycan notation: IUPAC condensed, linker removed
About 410 targets per protein were measured; listed, in parts, are those with the strongest signals and a random draw of the rest.
// response body must contain only the number

input: Which glycan array binding signal (z-score) value belongs to PEB3 (Campylobacter jejuni), Q0PBL7 (protein) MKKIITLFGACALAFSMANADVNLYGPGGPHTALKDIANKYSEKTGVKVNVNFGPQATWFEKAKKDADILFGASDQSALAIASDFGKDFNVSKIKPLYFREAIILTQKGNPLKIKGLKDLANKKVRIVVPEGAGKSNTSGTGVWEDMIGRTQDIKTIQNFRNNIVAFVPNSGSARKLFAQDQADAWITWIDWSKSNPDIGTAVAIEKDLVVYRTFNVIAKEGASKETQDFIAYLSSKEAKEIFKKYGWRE ?
output: -1.27

input: Request: Fm1D (Escherichia coli) (protein) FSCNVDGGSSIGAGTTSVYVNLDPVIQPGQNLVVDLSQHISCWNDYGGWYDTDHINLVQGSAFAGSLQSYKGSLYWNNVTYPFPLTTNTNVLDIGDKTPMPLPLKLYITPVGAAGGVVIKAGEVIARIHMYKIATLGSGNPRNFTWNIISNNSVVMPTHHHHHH
output: 3.04

input: Request: Epa3to1 (Candida glabrata) (protein) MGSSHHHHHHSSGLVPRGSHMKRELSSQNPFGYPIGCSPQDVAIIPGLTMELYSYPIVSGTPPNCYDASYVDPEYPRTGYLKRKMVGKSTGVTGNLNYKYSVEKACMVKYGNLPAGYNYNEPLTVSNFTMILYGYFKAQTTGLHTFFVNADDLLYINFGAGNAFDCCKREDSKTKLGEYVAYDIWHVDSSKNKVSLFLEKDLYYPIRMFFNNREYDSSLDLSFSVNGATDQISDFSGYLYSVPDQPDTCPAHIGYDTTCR
output: 5.48

input: Request: PfulAvr4 (Pseudocercospora fuligena) (protein) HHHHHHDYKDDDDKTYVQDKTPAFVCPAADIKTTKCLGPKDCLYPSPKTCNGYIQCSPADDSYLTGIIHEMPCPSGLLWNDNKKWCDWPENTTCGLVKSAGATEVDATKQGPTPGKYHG
output: 0.215

input: Request: Clone730PsrP (Streptococcus pneumoniae) (protein) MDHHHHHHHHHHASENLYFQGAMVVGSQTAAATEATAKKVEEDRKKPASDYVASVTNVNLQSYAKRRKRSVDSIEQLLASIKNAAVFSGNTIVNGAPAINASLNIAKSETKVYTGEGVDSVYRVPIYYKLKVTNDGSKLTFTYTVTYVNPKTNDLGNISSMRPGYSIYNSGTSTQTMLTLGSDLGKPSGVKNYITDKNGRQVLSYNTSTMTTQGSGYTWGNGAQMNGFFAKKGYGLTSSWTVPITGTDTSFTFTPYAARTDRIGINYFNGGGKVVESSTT
output: -0.508
